# Tested on: P12-Ichikawa
# method: cell viability relative to DMSO control; higher = less cytotoxic
# appliedConditions: RPMI 5 mM glucose + 10% dialyzed FBS; 48 h; 15.4 µM
endpoint: cell viability

Name the recorded cell viability for `CC1(C)O[C@@H]2C[C@H]3[C@@H]4CCC5=CC(=O)C=C[C@]5(C)[C@@]4(F)[C@@H](O)C[C@]3(C)[C@]2(C(=O)CO)O1` .
30.1%

Next molecule: `ClC1=C(N\C2=N\CCN2)C3=NSN=C3C=C1`
120%

Next molecule: COc1cc2nc(N(C)CCCNC(=O)C3CCCO3)nc(N)c2cc1OC (centres undefined)
87.8%

Next molecule: `CC(C)(C)c1cc(NC(=O)Nc2ccc(-c3cn4c(n3)sc3cc(OCCN5CCOCC5)ccc34)cc2)no1`
93.8%

---

# Tested on: NOMO1
# method: AUC of viability dose-response curve (% viability x log10 dose units); higher = less sensitive
# appliedConditions: RPMI 5 mM glucose + 10% dialyzed FBS; 48 h
I'd be grateful if you could share measured AUC of viability dose-response curve for these entries.
Keep it simple and answer with nothing but the number.

Name the recorded AUC of viability dose-response curve for `COc1ccc(-c2cc3nccn3c(Nc3ncccc3C(N)=O)n2)cc1OC` .
473

Next compound: COc1cc2nc(N(C)CCCNC(=O)C3CCCO3)nc(N)c2cc1OC (stereo not given)
331

Next compound: `O=C(OC)[C@]12CC[C@@]3(C)[C@]4(C)CC[C@H]5[C@@](C)(C)C(=O)C(=C[C@]5(C)C4=CC(=O)[C@@H]3[C@@H]2C[C@](C)(C)CC1)C#N`
381

Next compound: O=C([O-])C(O)Cc1ccc(O)c(O)c1 (stereo not given)
434

Next compound: `CN[S+](=O)([O-])Cc1ccc2[nH]cc(CCN(C)C)c2c1`
454

Next compound: `Cc1cc(OCCCc2c(C(=O)O)n(Cc3cccnc3)c3c(-c4c(COc5ccc(N6CCN([S+](C)(=O)[O-])CC6)cc5)nn(C)c4C)cccc23)cc(C)c1Cl`
443

Next compound: `CC(=O)Nc1ccc(OC[C@](C)(O)C(=O)Nc2ccc([N+](=O)[O-])c(C(F)(F)F)c2)cc1`
404

Next compound: CCN(CC)CC#CCOC(=O)C(O)(c1ccccc1)C1CCCCC1 (stereo not given)
465

Next compound: `NC1(Cc2ccc(Cl)cc2)CCN(c2ncnc3[nH]ccc23)CC1`
381

Next compound: `COC1=CC=CC2=C1C(=NC(=N2)C3=CC=CS3)NN4C(=O)\C=C(C)/C4=O`
265

Next compound: `COc1c(C)cnc(Cn2cnc3c(Cl)nc(N)nc32)c1C`
323

Next compound: `O=C(Nc1ccccc1Br)N[C@@H]1CCN(c2ccc(C(F)(F)F)cn2)C1`
447

Next compound: `CN\1C(=O)/C(=C(\N=C1N2CCCC[S+]2([O-])=O)C(=O)NCC3=CC=C(F)C=C3)O`
451

Next compound: `CC[C@H](CC[C@@H](C)[C@H]1CC[C@H]2[C@@H]3C\C=C/4C[C@@H](O)CC[C@]4(C)[C@H]3CC[C@]12C)C(C)C`
431

Next compound: `CN(Cc1cnc2nc(N)nc(N)c2n1)c1ccc(C(=O)N[C@@H](CCC(=O)O)C(=O)O)cc1`
278

Next compound: `CNC(=O)c1ccc(-c2cnc3ncc(Cc4ccc5ncccc5c4)n3n2)cc1F`
449

Next compound: CCCNC(=O)[C@H]1O[C@@H]1C(=O)N[C@H](C(=O)N1CCC[C@H]1C(=O)OC)C(C)CC (stereo not given in full)
449

Next compound: `NCC1(CC(=O)O)CCCCC1`
458

Next compound: `CC1=CC=CC=C1N2\C(=N/C3=C(C(=CC=C3)C)C2=O)C[N]4C=NC5=C4N=CN=C5N`
406

Next compound: COc1cccc2cc(-c3nc(C4CCC(C(=O)O)CC4)n4ncnc(N)c34)[nH]c12 (stereo not given)
359

---

# Test system: P12-Ichikawa
# method: cell viability relative to DMSO control; higher = less cytotoxic
# appliedConditions: RPMI 5 mM glucose + 10% dialyzed FBS; 48 h; 0.0211 µM
endpoint: cell viability (%)
Field: numeric (%). Do not append units.

Name the recorded cell viability for COC1CCC(CC1)N(C(=O)C2CCC(C)CC2)C3=C(SC(=C3)\C4=C\CCCC4)C(O)=O (stereo unspecified) .
110

Next molecule: `C#Cc1cccc(Nc2ncnc3cc(OCCOC)c(OCCOC)cc23)c1`
91.8

Next molecule: `COc1ccc(C[C@@H](C)[C@@H](C)Cc2ccc(OC)c(OC)c2)cc1OC`
107

Next molecule: CC(C)NCC(O)COc1ccc(COCCOC(C)C)cc1 (stereo unspecified)
111

Next molecule: CCN(CC)CC#CCOC(=O)C(O)(c1ccccc1)C1CCCCC1 (stereo unspecified)
85.5

Next molecule: COc1cc2c(cc1OC)C1CC(=O)C(CC(C)C)CN1CC2 (stereo unspecified)
124

Next molecule: `COC1=NC(=NC(=C1N\C2=N\CCN2)Cl)C`
95.1

Next molecule: `C=C(C)[C@@H]1CC[C@]2(C(=O)O)CC[C@]3(C)[C@H](CC[C@@H]4[C@@]5(C)CC[C@H](O)C(C)(C)[C@@H]5CC[C@]43C)[C@@H]12`
110

Next molecule: `CCCCn1c(=O)n(Cc2ccccc2F)c(=O)c2nc(Cc3ccc(NC(C)=O)cc3)[nH]c21`
91.3

Next molecule: `C/C=C1\NC(=O)[C@H]2CSSCC/C=C\[C@H](CC(=O)N[C@H](C(C)C)C(=O)N2)OC(=O)[C@H](C(C)C)NC1=O`
107

Next molecule: `O=NN(CCCl)C(=O)NC1CCCCC1`
102

---

# Test system: SEM cells
# method: cell viability relative to DMSO control; higher = less cytotoxic
# appliedConditions: HPLM + 10% dialyzed FBS; 48 h; 0.569 µM
endpoint: cell viability (%)
Field: numeric (%). Do not append units.

Name the recorded cell viability for `C/C=C1\NC(=O)[C@H]2CSSCC/C=C\[C@H](CC(=O)N[C@H](C(C)C)C(=O)N2)OC(=O)[C@H](C(C)C)NC1=O` .
4.32

Next compound: COc1cccc2cc(-c3nc(C4CCC(C(=O)O)CC4)n4ncnc(N)c34)[nH]c12 (stereo not given)
74.7

Next compound: CNC1CCC(N(Cc2cccc(-c3ccncc3)c2)C(=O)c2sc3ccccc3c2Cl)CC1 (stereo not given)
95.5

Next compound: `CC(C)[C@@H](N(CCCN)C(=O)C1=CC=C(C)C=C1)C/2=N/C3=CC(=CC=C3C(=O)N2CC4=CC=CC=C4)Cl`
19.5

Next compound: `C\C1=C\C(=O)OC2=C1C=CC(=C2)O`
128

Next compound: `Cc1nc(NC(=O)N2CCC[C@H]2C(N)=O)sc1-c1ccnc(C(C)(C)C(F)(F)F)c1`
74.4

Next compound: C[C@]\12CC[C@H](O)CC1=C/CC3C2CC[C@@]\4(C)C3C\C=C4[N]5C=NC6=C5C=CC=C6 (stereo not given in full)
109

Next compound: `CCCCCOC(=O)NC\1=N\C(=O)N(\C=C1F)[C@@H]2O[C@H](C)[C@@H](O)[C@H]2O`
120

Next compound: `CC(C)OC(=O)OCOP(=O)(CO[C@H](C)Cn1cnc2c(N)ncnc21)OCOC(=O)OC(C)C.O=C(O)C=CC(=O)O`
114

Next compound: `CCC[C@H](NC(=O)/C(C#N)=C/c1cccc(Br)n1)c1ccccc1`
111

Next compound: `NC(=O)c1cnc(N[C@@H]2CCCC[C@@H]2N)nc1Nc1cccc(-n2nccn2)c1`
110

Next compound: `COc1ccc(C[C@@H](C)[C@@H](C)Cc2ccc(OC)c(OC)c2)cc1OC`
91.8

Next compound: `COC1=CC2=NC=CC(=C2C=C1)OC3=CN=C(NC(=O)C/4=C(C)/N(CC(C)(C)O)N(C4=O)C5=CC=CC=C5)C=C3`
79.1

Next compound: `OC1=CC=C(C=C1)\C2=C\OC3=C(C=CC(=C3)O)C2=O`
104

Next compound: `C/C=C(/C)C(=O)O[C@H]1C(C)=C2[C@H]([C@@H]1OC(=O)CCCCCCC)[C@@](C)(OC(C)=O)C[C@H](OC(=O)CCC)[C@@]1(O)[C@H]2OC(=O)[C@@]1(C)O`
8.77

Next compound: `CC(=O)Oc1ccccc1C(=O)O`
105

Next compound: `CN[S+](=O)([O-])Cc1ccc2[nH]cc(CCN(C)C)c2c1`
113

Next compound: `CC1=NN(c2ccc(C)c(C)c2)C(=O)/C1=N/Nc1cccc(-c2cccc(C(=O)O)c2)c1O`
120

Next compound: `CNC(=O)c1ccc(-c2cnc3ncc(Cc4ccc5ncccc5c4)n3n2)cc1F`
124

Next compound: `Cc1cn2c(-c3cn[nH]c3)cnc2c(Nc2ccc(C(=O)N3CCNCC3)cc2F)n1`
107

Next compound: `CCc1cncnc1N1CCN(Cc2nc3cc(C(F)(F)F)ccc3[nH]2)CC1`
105

Next compound: `C[C@H]1[C@H](NC(=O)/C(=N/OC(C)(C)C(=O)O)c2csc(N)n2)C(=O)N1[S+](=O)([O-])O`
100

Next compound: `CC1(C)CCC[C@]2(C)[C@H]3CC(=O)O[C@]3(C)CC[C@@H]12`
116

Next compound: `CCc1cc(Nc2nccc(-c3c(-c4ccc(OC)c(C(=O)Nc5c(F)cccc5F)c4)nc4ccccn34)n2)c(OC)cc1N1CCC(N2CCN([S+](C)(=O)[O-])CC2)CC1`
95.3

Next compound: `CC(C)n1nc(-c2cc3cc(O)ccc3[nH]2)c2c(N)ncnc21`
45.2

// provenance: the supplement of paper PMC11451515
